biological target: Cel1A (Bgl II) (Trichoderma reesei, UniProt O93785, L2V/L167W/P172L); construct: forward primer with NcoI site encodes N-terminus MVPKDFQW; GH1; test: Dixon plot, pNPG hydrolysis, p-nitrophenol absorbance […] nm; conditions: pNPG substrate (low concentrations), 100 mM acetate pH 5.5, 30°C; competitive; glucose also stimulates at higher pNPG; read-out: WT
Sequence (O93785 1-466 L2V/L167W/P172L): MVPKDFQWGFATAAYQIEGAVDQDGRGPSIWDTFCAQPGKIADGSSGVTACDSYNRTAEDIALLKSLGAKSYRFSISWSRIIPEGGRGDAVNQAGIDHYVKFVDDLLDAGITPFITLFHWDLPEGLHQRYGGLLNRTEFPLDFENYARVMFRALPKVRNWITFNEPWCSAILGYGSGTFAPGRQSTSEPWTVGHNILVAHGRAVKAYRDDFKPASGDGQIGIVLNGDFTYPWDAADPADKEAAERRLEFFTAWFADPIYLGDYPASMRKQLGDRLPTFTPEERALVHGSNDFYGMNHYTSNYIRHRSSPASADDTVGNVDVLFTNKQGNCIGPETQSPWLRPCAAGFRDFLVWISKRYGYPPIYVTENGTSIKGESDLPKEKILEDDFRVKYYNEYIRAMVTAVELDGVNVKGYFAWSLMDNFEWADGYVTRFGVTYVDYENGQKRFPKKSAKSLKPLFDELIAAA
quantity-kind: Ki (mM)

compound | quantity-kind | endpoint-result
OC[C@H]1OC(O)[C@H](O)[C@@H](O)[C@@H]1O (stereo partly shown) [glucose] | Ki | 50

====

molecular target: Cel1A (Bgl II) (Trichoderma reesei, UniProt O93785, L2V); construct: forward primer with NcoI site encodes N-terminus MVPKDFQW; GH1; assay: Dixon plot, pNPG hydrolysis, p-nitrophenol absorbance […] nm; details: pNPG substrate (low concentrations), 100 mM acetate pH 5.5, 30°C; competitive; read-out: WT
Sequence (O93785 1-466 L2V): as the sequence (O93785 1-466 L2V/L167W/P172L) above, with W167L, L172P counted along it

compound | Ki
OC[C@H]1OC(O)[C@H](O)[C@@H](O)[C@@H]1O (stereo partly shown) | 50 mM
